Target Or Test System: human ether-à-go-go-related gene (hERG) potassium channel (human)
Assay Text: primary screen, population patch clamp on CHO cells stably expressing hERG; higher = less effect of the substance
Out of some 310,000 compounds screened, about 14,000 (4.5%) showed an effect of 50% or more. The effect is printed as a negative number. The entries come from a sample that favours strong results as a whole.
Use YES when the recorded hERG current change (%, negative = inhibition) at 10uM is no lower than -40%; use NO when it is lower.

INSERT INTO results (molecule, assigned_label) VALUES
  ('CCCc1cc(=O)oc2cc(C)cc(OC(C)C(=O)NCC(O)c3ccccc3)c12 (stereo not drawn)', 'YES'),
  ('Cc1c(CCC(=O)NCCCn2ccnc2)c(=O)oc2cc3occ(C(C)(C)C)c3cc12', 'NO'),
  ('Cc1oc2cc3oc(=O)c(CCC(=O)NCCCn4ccnc4)c(C)c3cc2c1C', 'NO'),
  ('COc1ccc(C(=O)NC2CC2)cc1OC1CCN(Cc2cc(C)c(C)cc2C)CC1', 'NO'),
  ('COCCN(C(=O)CCCC(=O)Nc1ccccn1)C(C(=O)NC1CCCC1)c1ccc(C)cc1 (stereo not drawn)', 'YES'),
  ('COc1ccc(C(=O)NC2CC2)cc1OC1CCN(Cc2cnn(C)c2C)CC1', 'YES'),
  ('CN=c1scc(C)n1/N=C/c1cc(Br)c(O)c(OC)c1', 'YES'),
  ('Cc1c(CCC(=O)NCCCn2ccnc2)c(=O)oc2c(C)c3occ(C(C)(C)C)c3cc12', 'NO'),
  ('COc1ccccc1Cc1noc(COc2cccc(C)c2C)n1', 'YES');

###

In this section, each of the molecules is paired with its reported hERG current change (%, negative = inhibition) at 10uM.
Target Or Test System: human ether-à-go-go-related gene (hERG) potassium channel (human);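 also: peak tail current of the secondary pulse compared with the same well before compound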
Assay Text: primary screen, population patch clamp on CHO cells stably expressing hERG; higher = less effect of the substance
Screen size: about 310,000 compounds; about 14,000 (4.5%) showed an effect of 50% or more. The effect is printed as a negative number. The sample as a whole holds a higher share of strong results than the screen did.
Experimental Readout: hERG current change (%, negative = inhibition) at 10uM (%)

INSERT INTO assay_data (molecule, reading_unit, assay_value) VALUES
  ('CC[C@H](C)Cc1cn([C@@H](CCCN=C(NC(=O)OC(C)(C)C)NC(=O)OC(C)(C)C)C(=O)NCCCCCCCCCCC(=O)N2CCN(C(=O)OC(C)(C)C)CC2)nn1', '%', 4.2),
  ('O=C(CN1CCOc2ccccc21)N1CCC(Cc2ccccc2)CC1', '%', -26.3),
  ('Cc1cccc(NC(=O)c2cc3c([nH]c4ccccc43)c(C)n2)c1C', '%', 11.6),
  ('Nc1c(C(=O)NCCN2CCOCC2)c2nc3ccccc3nc2n1CCc1ccccc1F', '%', -27.2),
  ('N#Cc1cccc(NC(=O)CN2C(=O)NC(Cc3ccccc3)C2=O)c1 (stereo not drawn)', '%', 2.91),
  ('COc1cc(C2N(c3ccccc3)CCN2c2ccccc2)ccc1OC(C)=O', '%', -1.36),
  ('COCCNc1ccc(-c2n[nH]c(=O)c3ccccc23)cc1[N+](=O)[O-]', '%', 9.51),
  ('Nc1c(C(=O)NCCc2ccccc2)c2nc3ccccc3nc2n1CCN1CCOCC1', '%', -3.49),
  ('O=C(CN1C(=O)NC(Cc2ccccc2)C1=O)Nc1ccccc1 (stereo not drawn)', '%', 6.7);

###

Target Or Test System: human ether-à-go-go-related gene (hERG) potassium channel (human);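 also: peak tail current of the secondary pulse compared with the same well before compound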
Assay Text: primary screen, population patch clamp on CHO cells stably expressing hERG; higher = less effect of the substance
Among all 310,000 compounds or so, about 14,000 (4.5%) showed an effect of 50% or more. The effect is printed as a negative number. The full list was thinned out, with strong results kept by preference.
Use Met when the recorded hERG current change (%, negative = inhibition) at 10uM is no lower than -10%; use Not met when it is lower.

INSERT INTO measurements (molecule, target_or_test_system, assigned_label) VALUES
  ('Cc1cc(Cl)ccc1C(=O)C1CCCN(C(=O)c2snnc2C)C1 (centres unmarked)', 'human ether-à-go-go-related gene (hERG) potassium channel (human)', 'Not met'),
  ('Cc1nc2c(cc1C(=O)N/N=C/c1ccc([N+](=O)[O-])cc1)c(=O)n(C)c(=O)n2C', 'human ether-à-go-go-related gene (hERG) potassium channel (human)', 'Not met'),
  ('O=C(c1ccc(Cl)cc1)C1CCCN(C(=O)c2csnn2)C1 (centres unmarked)', 'human ether-à-go-go-related gene (hERG) potassium channel (human)', 'Met'),
  ('O=C(c1ccc(C(F)(F)F)cc1)C1CCCN(C(=O)c2csnn2)C1 (centres unmarked)', 'human ether-à-go-go-related gene (hERG) potassium channel (human)', 'Not met'),
  ('Cc1nc(C)c(C(=O)N2CCCC(C(=O)c3ccc(Cl)cc3C)C2)s1 (centres unmarked)', 'human ether-à-go-go-related gene (hERG) potassium channel (human)', 'Not met');

###

Target Or Test System: human ether-à-go-go-related gene (hERG) potassium channel (human, UniProt Q12809);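 also: peak tail current of the secondary pulse compared with the same well before compound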
Sequence (Q12809 whole entry, looked up): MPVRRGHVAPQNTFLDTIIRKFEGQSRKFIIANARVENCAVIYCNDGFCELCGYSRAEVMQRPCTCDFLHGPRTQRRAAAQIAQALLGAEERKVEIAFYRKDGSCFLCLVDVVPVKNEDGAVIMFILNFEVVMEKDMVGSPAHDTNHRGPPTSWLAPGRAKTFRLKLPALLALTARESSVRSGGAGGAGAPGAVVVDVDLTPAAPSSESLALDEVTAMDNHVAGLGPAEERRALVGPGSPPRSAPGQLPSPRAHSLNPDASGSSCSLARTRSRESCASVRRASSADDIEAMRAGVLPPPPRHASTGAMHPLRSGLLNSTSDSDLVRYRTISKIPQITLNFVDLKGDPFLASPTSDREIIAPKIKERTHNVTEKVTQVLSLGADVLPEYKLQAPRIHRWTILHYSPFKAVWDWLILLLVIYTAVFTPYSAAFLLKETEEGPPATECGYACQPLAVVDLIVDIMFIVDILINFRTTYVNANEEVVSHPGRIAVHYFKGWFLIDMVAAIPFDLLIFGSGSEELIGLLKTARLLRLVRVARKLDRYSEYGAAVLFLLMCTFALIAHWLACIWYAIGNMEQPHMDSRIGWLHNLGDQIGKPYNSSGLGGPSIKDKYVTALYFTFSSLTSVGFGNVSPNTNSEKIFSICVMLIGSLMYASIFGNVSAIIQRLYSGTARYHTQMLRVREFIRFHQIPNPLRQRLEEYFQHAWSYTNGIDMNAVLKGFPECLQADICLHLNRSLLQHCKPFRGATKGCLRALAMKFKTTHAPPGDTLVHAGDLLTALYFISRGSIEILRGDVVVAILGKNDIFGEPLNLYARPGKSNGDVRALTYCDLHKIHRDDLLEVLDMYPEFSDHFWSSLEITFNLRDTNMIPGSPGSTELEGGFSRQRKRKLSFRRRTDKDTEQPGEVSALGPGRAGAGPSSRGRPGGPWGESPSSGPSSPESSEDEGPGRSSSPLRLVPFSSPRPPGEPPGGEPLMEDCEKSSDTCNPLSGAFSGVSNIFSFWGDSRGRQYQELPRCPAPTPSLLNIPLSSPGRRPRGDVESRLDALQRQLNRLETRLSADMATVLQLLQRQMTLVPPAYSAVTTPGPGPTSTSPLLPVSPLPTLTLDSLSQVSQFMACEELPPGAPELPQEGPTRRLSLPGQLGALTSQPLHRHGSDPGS
Assay Text: primary screen, population patch clamp on CHO cells stably expressing hERG; higher = less effect of the substance
Hit rate of the full screen: of about 310,000 compounds, about 14,000 (4.5%) showed an effect of 50% or more. The effect is printed as a negative number. This is one part of a sample in which strong results are shown more often than they occur.
Experimental Readout: hERG current change (%, negative = inhibition) at 10uM (%)

INSERT INTO measurements (molecule, target_or_test_system, assay_value) VALUES
  ('CCOC(=O)c1cc(-c2ccccc2)n(CC(=O)Nc2ccc(OC)cc2)c1C', 'human ether-à-go-go-related gene (hERG) potassium channel (human, UniProt Q12809)', 6.19),
  ('O=C(NNC(=O)c1csc(N2CCOCC2)n1)c1ccc(=O)[nH]c1', 'human ether-à-go-go-related gene (hERG) potassium channel (human, UniProt Q12809)', 6.26),
  ('CC1CCN(c2nc(CN3CCCCC3)nc3scc(-c4ccccc4)c23)CC1', 'human ether-à-go-go-related gene (hERG) potassium channel (human, UniProt Q12809)', -75.5),
  ('Cc1c(Cl)cccc1NC(=O)COC(=O)c1c2c(nc3ccccc13)CCN(Cc1ccccc1)C2', 'human ether-à-go-go-related gene (hERG) potassium channel (human, UniProt Q12809)', 2.82),
  ('Cc1cccc(C(=O)OCC(=O)NC(=O)Cc2ccccc2)c1O', 'human ether-à-go-go-related gene (hERG) potassium channel (human, UniProt Q12809)', 13.8),
  ('Clc1ccc(CNc2nc(CN3CCOCC3)nc3scc(-c4ccccc4)c23)cc1', 'human ether-à-go-go-related gene (hERG) potassium channel (human, UniProt Q12809)', -9.73),
  ('CC1CCCN(c2nc(-c3cccnc3)nc3scc(-c4ccccc4)c23)C1 (stereo not drawn)', 'human ether-à-go-go-related gene (hERG) potassium channel (human, UniProt Q12809)', 11.6),
  ('CCOC(=O)c1cc(-c2ccccc2)n(CCC(=O)NC(C)CC)c1C (stereo not drawn)', 'human ether-à-go-go-related gene (hERG) potassium channel (human, UniProt Q12809)', -12.5),
  ('CCCNC(=O)CCn1c(-c2ccc(C)cc2)cc(C(=O)OCC)c1C', 'human ether-à-go-go-related gene (hERG) potassium channel (human, UniProt Q12809)', -6.08);

###

Target Or Test System: human ether-à-go-go-related gene (hERG) potassium channel (human, UniProt Q12809);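 also: peak tail current of the secondary pulse compared with the same well before compound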
Assay Text: primary screen, population patch clamp on CHO cells stably expressing hERG; higher = less effect of the substance
The whole screen tested about 310,000 compounds, of which about 14,000 (4.5%) showed an effect of 50% or more. The effect is printed as a negative number. Only a selection was taken, and strong results are over-represented in it overall.
In this section, each of the compounds is paired with its reported hERG current change (%, negative = inhibition) at 10uM.
Experimental Readout: hERG current change (%, negative = inhibition) at 10uM (%)

INSERT INTO results (compound, target_or_test_system, reading_unit, assay_value) VALUES
  ('O=C(CSc1ccc2nnc(-c3ccccc3)n2n1)N1CCCc2ccccc21', 'human ether-à-go-go-related gene (hERG) potassium channel (human, UniProt Q12809)', '%', -62.7),
  ('Clc1ccc(-[n+]2c(-c3cccc(Br)c3)[nH]c3nc4ccccc4nc32)cc1', 'human ether-à-go-go-related gene (hERG) potassium channel (human, UniProt Q12809)', '%', 13.5),
  ('CCOC(=O)N1CCN(C(=O)CSc2ccc3nnc(-c4ccccn4)n3n2)CC1', 'human ether-à-go-go-related gene (hERG) potassium channel (human, UniProt Q12809)', '%', -36),
  ('CC1(C)c2[nH]c3ccccc3c2C[C@H]2C(=O)N(N)CC(=O)N21.Cl', 'human ether-à-go-go-related gene (hERG) potassium channel (human, UniProt Q12809)', '%', 19),
  ('O=C(CSc1ccc2nnc(-c3ccccc3)n2n1)N1CCCCC1', 'human ether-à-go-go-related gene (hERG) potassium channel (human, UniProt Q12809)', '%', -59.7),
  ('O=C(CN1C(=O)NC2(CCCc3ccccc32)C1=O)NCc1cccs1 (stereo not shown)', 'human ether-à-go-go-related gene (hERG) potassium channel (human, UniProt Q12809)', '%', 6.2),
  ('O=C(CSc1ccc2nnc(-c3ccccn3)n2n1)N1CCN(c2ccccc2)CC1', 'human ether-à-go-go-related gene (hERG) potassium channel (human, UniProt Q12809)', '%', -86.7),
  ('COc1ccc(-c2nnc3ccc(SCC(=O)N4CCCC4)nn23)cc1', 'human ether-à-go-go-related gene (hERG) potassium channel (human, UniProt Q12809)', '%', -15.2),
  ('CCOc1ccc(-c2nnc3ccc(SCC(=O)N4CCCCC4)nn23)cc1', 'human ether-à-go-go-related gene (hERG) potassium channel (human, UniProt Q12809)', '%', -5.88),
  ('Cl.Nc1ncnc2sc3c(c12)CCNC3', 'human ether-à-go-go-related gene (hERG) potassium channel (human, UniProt Q12809)', '%', 25.4);
